Where these numbers come from: PubChem BioAssay (NCI)

tested on: MDA-N; assay: NCI tumour cell line growth inhibition, 48 h
outcome_measure: TGI

>>> observed_result("COc1ccc(C2=C(c3ccccc3)C(=O)N3CCCC3C2)cc1 (centres undefined)")
"> 100 µM"
>>> observed_result("CC(=O)OC1C(O)C(C)OC(OC2C(OC(=O)C3CCC4C(C3)OC3(CC(OC(=O)/C=C/c5ccccc5)C(C)CO3)C43CO3)OC(C)C(O)C2OC(C)=O)C1O (centres undefined)")
"0.0182 µM"
>>> observed_result("COc1cc(-c2nc(N)c(C#N)c3c2CCS(=O)(=O)c2ccc(C)cc2-3)cc(OC)c1OC")
"> 100 µM"
>>> observed_result("C1=NN2C(c3ccccc3)=NOC2C2C(c3ccccc3)=NOC12 (centres undefined)")
"> 100 µM"
>>> observed_result("CCOC(=O)N1c2ccccc2N(C(=O)OCC)C1CC(=O)/C=C/c1ccccc1")
"15.8 µM"
>>> observed_result("CN(C)CCC(=O)[C@@]1(O)CC[C@H]2[C@@H]3CC=C4C[C@@H](O)CC[C@]4(C)[C@H]3CC[C@@]21C")
"34.5 µM"
>>> observed_result("O=c1ccn(C/C=C/c2ccccc2)c(=S)n1C/C=C/c1ccccc1")
"> 100 µM"
>>> observed_result("Nc1c(S(=O)(=O)O)cc(S(=O)(=O)O)c2ccc(N=Nc3ccccc3)c(O)c12")
"> 100 µM"
>>> observed_result("N#Cc1c(-c2ccccc2)cn(C(=O)c2ccccc2)c1N")
"> 100 µM"

----------
tested on: A549 NSCLC; assay: NCI tumour cell line growth inhibition, 48 h
outcome_measure: GI50

>>> observed_result("Cc1cc(O)ccc1C1(c2ccc(O)cc2C)OC(=O)c2ccccc21")
"20.8 µM"
>>> observed_result("c1cc[n+](Cc2c3ccccc3cc3c2ccc2ccccc23)cc1")
"7.31 µM"
>>> observed_result("Cn1c2c(c3ccccc31)CCN1C[C@@H]3CCCC[C@H]3C[C@@H]21")
"3.1 µM"
>>> observed_result("Cn1cc(-c2csc(-c3ccccc3)n2)c2cccnc21")
"16.9 µM"
>>> observed_result("CC[O-].CC[O-].O=C1C=C([O-])C(=O)c2ccccc21.O=C1C=C([O-])C(=O)c2ccccc21.[Ti+4]")
"26 µM"
>>> observed_result("COc1ccc2nc3cc([N+](=O)[O-])ccc3c(NCCO)c2c1")
"4.44 µM"
>>> observed_result("COc1ccc2[nH]c(C(=O)OCc3ccc4c(Br)cc(Br)c(O)c4n3)cc2c1")
"1.63 µM"

----------
// reported TGI per item
system: A498 renal; experiment: NCI tumour cell line growth inhibition, 48 h
outcome_measure: TGI (µM)

>>> observed_result("CC(C)c1cnc(-c2cc(Cl)ccc2F)cc1Nc1ccncc1C(=O)NC(CO)CO")
19.7
>>> observed_result("Cc1[nH]c(C(=O)Nc2cccc(OC3CCNCC3)c2)c(Cl)c1Cl")
4.6
>>> observed_result("C=C(C)COc1ccc2c(c1)CCC1C2CCC2(C)C(=O)/C(=N/O)CC12 (stereo not given)")
24.3
>>> observed_result("CC(=O)Oc1ccc(C2OC(c3ccc4ccccc4c3OC(C)=O)=NN2C(C)=O)c(OC(C)=O)c1 (stereo not given)")
17.5

----------
tested on: M19-MEL melanoma; assay: NCI tumour cell line growth inhibition, 48 h
outcome_measure: TGI

>>> observed_result("O=C(O)C1=C(CO)Oc2cc3c(cc2C1c1ccc2c(c1)OCO2)OCO3 (configuration not stated)")
"> 100 µM"
>>> observed_result("COC(=O)c1cc(O)ccc1O")
"> 100 µM"
>>> observed_result("NC(CCc1nc(-c2cccc([N+](=O)[O-])c2)cs1)C(=O)O (configuration not stated)")
"> 100 µM"
>>> observed_result("Cc1c(-c2coc(-c3ccc([N+](=O)[O-])cc3)n2)c(=O)n(-c2ccccc2)n1C")
"> 100 µM"
>>> observed_result("O=C(O)C12C3CCC(C3)C1(C(=O)O)C1CCC2C1 (configuration not stated)")
"> 100 µM"
>>> observed_result("CC(=O)OCc1nnn2c1C(OC(C)=O)CC2 (configuration not stated)")
"> 100 µM"
>>> observed_result("COP12(OC)NC(=O)OC1(C(F)(F)F)c1ccccc1O2 (configuration not stated)")
"> 100 µM"
>>> observed_result("CC(=O)OC(C(=O)[O][Ge]([CH3])([CH3])[CH3])c1ccccc1 (configuration not stated)")
"> 100 µM"
>>> observed_result("CN1CCS(=O)(=O)NC(Cc2ccccc2)C(=O)N2CCCC2C1=O (configuration not stated)")
"> 100 µM"
>>> observed_result("O=C(c1ccccc1)n1cc(/C=C/[N+](=O)[O-])c2ccccc21")
"38.9 µM"
>>> observed_result("CC[O-].CC[O-].O=C1C=C([O-])C(=O)c2ccccc21.O=C1C=C([O-])C(=O)c2ccccc21.[Ti+4]")
"3.81 µM"
>>> observed_result("O=C(O)C1=Cc2cccc3cccc(c23)C1=O")
"> 100 µM"
>>> observed_result("OC1(C(Sc2ccccc2)Sc2ccccc2)CCCCCC1")
"> 100 µM"
>>> observed_result("CC(=O)Oc1ccc2c(=O)c(C(C)=O)coc2c1")
"> 100 µM"
>>> observed_result("CCOC(=O)CCc1c(C)c2c(OC)cc(OC)cc2oc1=O")
"> 100 µM"
>>> observed_result("CCN(N=O)C1C2(CCCC2)NC(=O)C12CCCC2 (configuration not stated)")
"> 100 µM"
>>> observed_result("CCCCCCCCCCCCCCCCCCN(C)CC(COC)OP(=O)([O-])OCC[N+](C)(C)C (configuration not stated)")
"10.1 µM"
